Measurement Description: Ratio of heart to kidneys uptake after 30 min was determined in female Fischer rats after [125I]-labeled compound complexed with bovine serum albumin was injected intravenously
Assay type: functional, Heart/Kidney
Measure Name: Ratio
Give only the figure.

A selection of reference data follows.
What does the record list as Ratio for "O=C(O)CCCCCCCCC[Te]CCCCC/C=C/I" ?
1.5

What does the record list as Ratio for "O=C(O)CCCCCCC[Te]CCCCCCC/C=C/I" ?
3.7

What does the record list as Ratio for "O=C(O)CCCCCCCCCCC[Te]CCC/C=C/I" ?
1.5

Continuing:
What does the record list as Ratio for "O=C(O)CCC[Te]CCCCCCCCCCC/C=C/I" ?
4.6

What does the record list as Ratio for "O=C(O)CCCCC[Te]CCCCCCCCC/C=C/I" ?
3.1
